- reported.conditions: Cootes carp 36, Oct 3, 2011, female, wet weight
test.readout: plasma concentration, CPM-C 36 (ng/g)
Express it in ng/g; write the number only.

Recorded plasma concentration, CPM-C 36, per entry:
CCN(CC)C(=O)c1cccc(C)c1 [DEET, N,N-Diethyl-m-toluamide]
0.743
COc1ccc(C(CN(C)C)C2(O)CCCCC2)cc1 (centres unmarked)
0.057
CN(C)CCC=C1c2ccccc2CC(O)c2ccccc21 (centres unmarked) [10-hydroxy-amitriptyline]
0.025
O=C(Nc1ccc(Cl)cc1)Nc1ccc(Cl)c(Cl)c1
3.35

Asked: Name the reported plasma concentration, CPM-C 36 value associated with the molecule `CCCCC(=O)N(Cc1ccc(-c2ccccc2-c2nnn[nH]2)cc1)[C@H](C(=O)O)C(C)C`
Given back: 0.570

Asked: One more molecule: `Cc1ccc(C)c(OCCCC(C)(C)C(=O)O)c1`
Given back: 0.827

Asked: One more molecule: NCCC(Oc1ccc(C(F)(F)F)cc1)c1ccccc1 (centres unmarked)
Given back: 0.215

The measured values listed here are drawn from paper PMC5717258.
